assay: Human serum binding estimated from serum effect on MIC (HSB*); format: in vitro ADME; settings: MIC against S. aureus ATCC 29213 in growth medium vs 1:1 growth medium and human serum
Listing: HSB*, human serum binding calculated using serum effect on MIC of selected compounds
Report the figure in % without appending any unit label.

The compound identified as NCCSCc1cnccc1SC1=C(C(=O)O)N2C(=O)[C@@H](NC(=O)/C(=N\O)c3nc(N)sc3Cl)[C@H]2SC1 [RWJ 54428, reference compound] registered its HSB*, human serum binding calculated using serum effect on MIC at 67

The compound identified as Nc1nc(C(=NO)C(=O)N[C@@H]2C(=O)N3C(C(=O)O)=C(Sc4nncs4)CSC23)c(Cl)s1 (stereo partly drawn) registered its HSB*, human serum binding calculated using serum effect on MIC at 98

New cases:
The compound identified as Nc1nc(C(=NO)C(=O)N[C@@H]2C(=O)N3C(C(=O)O)=C(Sc4nnc(N)s4)CSC23)ns1 (stereo partly drawn) registered its HSB*, human serum binding calculated using serum effect on MIC at 50

The compound identified as Nc1nnc(SC2=C(C(=O)O)N3C(=O)[C@@H](NC(=O)C(=NOCCF)c4nc(N)sc4Cl)C3SC2)s1 (stereo partly drawn) registered its HSB*, human serum binding calculated using serum effect on MIC at 75

The compound identified as Nc1nnc(SC2=C(C(=O)O)N3C(=O)[C@@H](NC(=O)C(=NO)c4nc(N)sc4Cl)C3SC2)s1 (stereo partly drawn) registered its HSB*, human serum binding calculated using serum effect on MIC at 94

The compound identified as Nc1nc(C(=NO)C(=O)N[C@@H]2C(=O)N3C(C(=O)O)=C(Sc4nnc[nH]4)CSC23)c(Cl)s1 (stereo partly drawn) registered its HSB*, human serum binding calculated using serum effect on MIC at 88
